- measurement-notes: qHTS for Inhibitors of Inflammasome Signaling: IL-1-beta AlphaLISA Primary Screen; note: % is set by controls: 0 for no effect and ±100 for the full control effect
- condition-details: THP-1 LPS/ATP IL-1B secretion, 16 h; at 57.5 µM, active compounds read low
Among all 360,000 compounds or so, about 17,000 (4.7%) were called active. About 5% were inconclusive and are not listed. This excerpt belongs to a sample that is enriched for actives.
Quick reference for activity change among some molecules
Number in %, nothing else.

Examples from the recorded data:
S=C(Nc1ccc(Br)cc1)NC1CCN(Cc2ccccc2)CC1 : -96
S=C(NN=C1CCN(Cc2ccccc2)CC1)NC1CCCCC1 : 0
O=C(C=CC(=O)Nc1ccc(F)cc1F)Nc1ccc(F)cc1F : 36.7
Cc1cc(Br)ccc1NC(=S)NC1CCCC1 : 0.7
O=S1(=O)CC(N2CCN(Cc3ccccc3F)CC2)CN1Cc1cn(Cc2cccc(C(F)(F)F)c2)nn1 (stereo unspecified) : -6.73
O=C(Nc1ccc(C(=O)N2CCOCC2)cc1)Nc1cccc(C(F)(F)F)c1 : -10.3

Need activity change of "Cc1cc(Br)ccc1NC(=O)CCCOc1cc(=O)n(C)c2ccccc12" , thanks.
-13.4

Continue with "O=S(=O)(NCCCc1ccccc1)c1ccc(Br)cc1"
8.22

Entry "O=C(Nc1ccc(-c2csc(Nc3cccc(C(F)(F)F)c3)n2)cc1)c1cccc(C(F)(F)F)c1" please
11.4

Then what about the molecule "O=C(Cc1ccc(Br)cc1)NCCc1ccccc1" ?
-1.81
